# Method: log P by HPLC on reversed-phase (C18) columns, OECD Guideline 117
# Format: physicochemical
# Condition summary: reversed-phase (C18) HPLC column; acidic range, pH 2.7, 0.1% aqueous formic acid and acetonitrile; read-out: LogP[a]
chromatographic logP values for the molecules below.

>>> recorded_value("O=C(Nc1cccc(SC(F)(F)F)c1)c1cnc2nc(-c3cncc(F)c3)sc2c1")
3.53
>>> recorded_value("CC[S+]([O-])c1ccccc1-c1cnc2nc(-c3ccc[n+]([O-])c3)sc2c1 (stereo not drawn)")
1.86
>>> recorded_value("O=C(Nc1cccc([S+]([O-])C(F)(F)F)c1)c1cnc2nc(-c3cncc(F)c3)sc2c1 (stereo not drawn)")
2.54
>>> recorded_value("Cc1cc(C)c(-c2cnc3nc(-c4cccnc4)sc3c2)cc1SCC(F)(F)F")
3.97
>>> recorded_value("CS(=O)(=O)CCNC(=O)c1cnc2nc(-c3cccnc3)sc2c1")
0.84

QUERY: Answer with the recorded chromatographic logP of Clc1cccc(Nc2cnc3nc(-c4cccnc4)sc3c2)c1 only.
RESULT: 2.66

QUERY: Look up chromatographic logP of Cc1cc(F)c(-c2cnc3nc(-c4cccnc4)sc3c2)cc1[S+]([O-])CC(F)(F)F (stereo not drawn) and report it.
RESULT: 2.5

QUERY: For the molecule CC[S+]([O-])c1ccccc1-c1cnc2nc(-c3cccnc3)sc2c1 (stereo not drawn) , give its measured chromatographic logP value.
RESULT: 1.58

QUERY: Given Cc1nn(-c2cnc3nc(-c4cccnc4)sc3c2)c(=O)n1C , respond with its chromatographic logP.
RESULT: 1.23

----------
# System: green peach aphid (Myzus persicae)
# Method: Myzus persicae spray test (Chinese cabbage leaf discs)
# Type: in vivo
# Condition summary: Myzus persicae, foliar, 144 h, application rate 500 g/ha, after 6 days, 100% = all aphids killed, read-out: efficacy
Quantity: pest or weed control at 500 g/ha (%)
A number alone suffices; assume %.

# example entries with known answers
>>> recorded_value("Clc1cccc(Nc2cnc3nc(-c4cccnc4)sc3c2)c1 [Example 25]")
90
>>> recorded_value("Cc1nn(-c2cnc3nc(-c4cccnc4)sc3c2)c(=S)n1C [Example 31]")
90

QUERY: Supply recorded pest or weed control at 500 g/ha for Cc1cc(F)c(-c2cnc3nc(-c4cccnc4)sc3c2)cc1SCC(F)(F)F [Example 22] here.
RESULT: 100

QUERY: Retrieve pest or weed control at 500 g/ha measured for Clc1cccc(-c2cnc3nc(-c4cccnc4)sc3c2)c1 [Example 7] and print it.
RESULT: 100

QUERY: Tell me its pest or weed control at 500 g/ha given Cn1c(=O)cnn(-c2cnc3nc(-c4cccnc4)sc3c2)c1=O [Example 39] as the entry.
RESULT: 90

QUERY: Entry Cc1ccccc1-c1cnc2nc(-c3cccnc3)sc2c1 [Example 2] needs its pest or weed control at 500 g/ha filled in; supply it.
RESULT: 100

QUERY: Specify measured pest or weed control at 500 g/ha for Cc1cc(F)c(-c2cnc3nc(-c4cccnc4)sc3c2)cc1[S+]([O-])CC(F)(F)F (stereo not drawn) [Example 23] .
RESULT: 90

----------
LogP[a] overview
# Method: log P by HPLC on reversed-phase (C18) columns, OECD Guideline 117
# Assay type: physicochemical
# Condition summary: acidic range, pH 2.7, 0.1% aqueous formic acid and acetonitrile
Field format: numeric only.

Some solved cases for reference:
>>> recorded_value("Cc1ccc(-c2cnc3nc(-c4cccnc4)sc3c2)cc1SCC(F)(F)F [Example 17]")
3.74
>>> recorded_value("Cc1cccc(-c2cnc3nc(-c4cccnc4)sc3c2)c1 [Example 3]")
2.91
>>> recorded_value("Fc1ccccc1-c1cnc2nc(-c3cccnc3)sc2c1 [Example 5]")
2.51
>>> recorded_value("Clc1ccccc1-c1cnc2nc(-c3cccnc3)sc2c1 [Example 6]")
2.77
>>> recorded_value("c1ccc(-c2cnc3nc(-c4cccnc4)sc3c2)cc1 [Example 1]")
2.47

Would you kindly look at the next entry?
QUERY: Name the recorded LogP[a] of the molecule listed here: CC[S+]([O-])c1ccc(-c2cnc3nc(-c4ccc[n+]([O-])c4)sc3c2)cc1 (stereo not drawn) [Example 13]
RESULT: 1.85

----------
Each entry below carries its reported chromatographic logP.
# Method: log P by HPLC on reversed-phase (C18) columns, OECD Guideline 117
# Type: physicochemical
# Condition summary: reversed-phase (C18) HPLC column; neutral range, pH 7.8, 0.001 molar aqueous ammonium hydrogencarbonate and acetonitrile; read-out: logP[b]
# Protocol: The log P values were determined in accordance with OECD Guideline 117 (EC Directive 92/69/EEC) by HPLC (high-performance liquid chromatography) using reversed-phase (RP) columns (C18), by the following methods: [a] […] Calibration is carried out using unbranched alkan-2-ones (having 3 to 16 carbon atoms) with known log P values (log P values determined on the basis of the retention times by linear interpolation between two successive alkanones).
Kindly provide the number alone.

>>> recorded_value("Clc1cccc(-c2cnc3nc(-c4cccnc4)sc3c2)c1")
3.01

QUERY: Provide one value: measured chromatographic logP of CC[S+]([O-])c1ccccc1-c1cnc2nc(-c3ccc[n+]([O-])c3)sc2c1 (centres unmarked)
RESULT: 1.87

QUERY: Provide measured chromatographic logP value, entry: CCSc1ccccc1-c1cnc2nc(-c3cccnc3)sc2c1
RESULT: 3.13

QUERY: Using the record for Cc1nn(-c2cnc3nc(-c4cccnc4)sc3c2)c(=S)n1C , state its measured chromatographic logP.
RESULT: 1.21

QUERY: Give recorded chromatographic logP. Cn1c(=O)cnn(-c2cnc3nc(-c4cccnc4)sc3c2)c1=O
RESULT: 1.36

----------
# Method: log P by HPLC on reversed-phase (C18) columns, OECD Guideline 117
# Type: physicochemical
# Condition summary: acidic range, pH 2.7, 0.1% aqueous formic acid and acetonitrile
LogP[a] overview
Please give only the number in your answer, with no unit.

QUERY: Please list LogP[a] recorded for the compound CCSc1ccc(-c2cnc3nc(-c4cccnc4)sc3c2)cc1
RESULT: 3.34

QUERY: Quote LogP[a] reported for FC(F)(F)c1cnn(-c2cnc3nc(-c4cccnc4)sc3c2)c1 please.
RESULT: 2.48

QUERY: Give the measured LogP[a] for Cc1ccc(-c2cnc3nc(-c4cccnc4)sc3c2)cc1
RESULT: 2.91

QUERY: Give the measured LogP[a] for c1ccc(Nc2cnc3nc(-c4cccnc4)sc3c2)cc1
RESULT: 2.25

QUERY: Tell me LogP[a] reported for Cc1ccc(-c2cnc3nc(-c4cccnc4)sc3c2)cc1[S+]([O-])CC(F)(F)F (centres unmarked)
RESULT: 2.4

----------
# Method: log P by HPLC on reversed-phase (C18) columns, OECD Guideline 117
# Type: physicochemical
# Condition summary: reversed-phase (C18) HPLC column; neutral range, pH 7.8, 0.001 molar aqueous ammonium hydrogencarbonate and acetonitrile; read-out: logP[b]
Let's look at some compounds and their measured chromatographic logP.
Lab note: write the figure by itself, no unit.

>>> recorded_value("Cc1cc(F)c(-c2cnc3nc(-c4cccnc4)sc3c2)cc1[S+]([O-])CC(F)(F)F (stereo not drawn)")
2.46
>>> recorded_value("Cc1cc(C)c([S+]([O-])CC(F)(F)F)cc1-c1cnc2nc(-c3ccc[n+]([O-])c3)sc2c1 (stereo not drawn)")
1.86

QUERY: Read the entry Cc1ccccc1-c1cnc2nc(-c3cccnc3)sc2c1 and write its reported chromatographic logP.
RESULT: 2.8

QUERY: Input Cc1cc(C)c(-c2cnc3nc(-c4cccnc4)sc3c2)cc1SCC(F)(F)F , output reported chromatographic logP.
RESULT: 3.95

QUERY: Give a short answer stating reported chromatographic logP for Cc1cc(F)c(-c2cnc3nc(-c4cccnc4)sc3c2)cc1SCC(F)(F)F .
RESULT: 3.78

QUERY: Answer with reported chromatographic logP of Brc1cnc2nc(-c3cccnc3)sc2c1
RESULT: 1.95

QUERY: Provide chromatographic logP value for the following compound: Clc1cccc(Nc2cnc3nc(-c4cccnc4)sc3c2)c1
RESULT: 2.69

QUERY: For Cc1cc(C)c([S+]([O-])CC(F)(F)F)cc1-c1cnc2nc(-c3cccnc3)sc2c1 (stereo not drawn) , write its chromatographic logP.
RESULT: 2.52

QUERY: Using the record for FC(F)(F)c1ccn(-c2cnc3nc(-c4cccnc4)sc3c2)n1 , state its measured chromatographic logP.
RESULT: 2.57

QUERY: // Input: Cc1nn(-c2cnc3nc(-c4cccnc4)sc3c2)c(=O)n1C . Output its chromatographic logP only.
RESULT: 1.42

QUERY: # return recorded chromatographic logP for entry CC[S+]([O-])c1ccccc1-c1cnc2nc(-c3cccnc3)sc2c1 (stereo not drawn)
RESULT: 1.59

QUERY: Input c1cncc(-c2nc3ncc(-n4cccn4)cc3s2)c1 , output reported chromatographic logP.
RESULT: 1.62
